tested on: Murine T-cell line; test: Cytotoxicity against Balb/c mouse T cells assessed as decrease in cell survival at 100 uM by MTT assay; assay type: cell-based
measured_parameter: Activity

smiles_repr=CCCCOc1cc(C)c2c(c1C)[C@@H]1OC(=O)[C@@H](C)[C@@H]1CC2 recorded_value=Non-Toxic
smiles_repr=CC(=O)Oc1cc(C)c2c(c1C)[C@@H]1OC(=O)[C@@H](C)[C@@H]1CC2 recorded_value=Toxic
smiles_repr=CCCCC(=O)Oc1cc(C)c2c(c1C)[C@@H]1OC(=O)[C@@H](C)[C@@H]1CC2 recorded_value=Toxic
smiles_repr=Cc1cc(O)c(C)c2c1CC[C@H]1[C@H](C)C(=O)O[C@@H]21 recorded_value=Toxic
smiles_repr=Cc1cc(OC(=O)CCC(=O)Nc2ccccc2F)c(C)c2c1CC[C@H]1[C@H](C)C(=O)O[C@@H]21 recorded_value=Non-Toxic

====

test system: Murine T-cell line; experiment: Cytotoxicity against Balb/c mouse T cells assessed as decrease in cell survival at 10 uM by MTT assay; format: cell-based
measured_parameter: Activity

smiles_repr=CCCCOc1cc(C)c2c(c1C)[C@@H]1OC(=O)[C@@H](C)[C@@H]1CC2 target_or_test_system="Murine T-cell line" measured_parameter=Activity recorded_value=Non-Toxic
smiles_repr=CC1=C2[C@H]3OC(=O)[C@@H](C)[C@@H]3CC[C@@]2(C)C=CC1=O target_or_test_system="Murine T-cell line" measured_parameter=Activity recorded_value=Non-Toxic
smiles_repr=Cc1cc(OC(=O)CCC(=O)O)c(C)c2c1CC[C@H]1[C@H](C)C(=O)O[C@@H]21 target_or_test_system="Murine T-cell line" measured_parameter=Activity recorded_value=Toxic
smiles_repr=Cc1cc(OC(=O)CCC(=O)Nc2ccccc2F)c(C)c2c1CC[C@H]1[C@H](C)C(=O)O[C@@H]21 target_or_test_system="Murine T-cell line" measured_parameter=Activity recorded_value=Non-Toxic
smiles_repr=Cc1cc(OC(=O)CCC(=O)Nc2ccccc2Cl)c(C)c2c1CC[C@H]1[C@H](C)C(=O)O[C@@H]21 target_or_test_system="Murine T-cell line" measured_parameter=Activity recorded_value=Non-Toxic
smiles_repr=CCC(=O)Oc1cc(C)c2c(c1C)[C@@H]1OC(=O)[C@@H](C)[C@@H]1CC2 target_or_test_system="Murine T-cell line" measured_parameter=Activity recorded_value=Toxic
smiles_repr=CCCCCOc1cc(C)c2c(c1C)[C@@H]1OC(=O)[C@@H](C)[C@@H]1CC2 target_or_test_system="Murine T-cell line" measured_parameter=Activity recorded_value=Toxic
smiles_repr=Cc1cc(OC(=O)C(C)C)c(C)c2c1CC[C@H]1[C@H](C)C(=O)O[C@@H]21 target_or_test_system="Murine T-cell line" measured_parameter=Activity recorded_value=Non-Toxic
smiles_repr=CCCCC(=O)Oc1cc(C)c2c(c1C)[C@@H]1OC(=O)[C@@H](C)[C@@H]1CC2 target_or_test_system="Murine T-cell line" measured_parameter=Activity recorded_value=Non-Toxic
smiles_repr=Cc1cc(O)c(C)c2c1CC[C@H]1[C@H](C)C(=O)O[C@@H]21 target_or_test_system="Murine T-cell line" measured_parameter=Activity recorded_value=Toxic
smiles_repr=CCCCCCCC(=O)Oc1cc(C)c2c(c1C)[C@@H]1OC(=O)[C@@H](C)[C@@H]1CC2 target_or_test_system="Murine T-cell line" measured_parameter=Activity recorded_value=Non-Toxic
smiles_repr=CC(=O)Oc1cc(C)c2c(c1C)[C@@H]1OC(=O)[C@@H](C)[C@@H]1CC2 target_or_test_system="Murine T-cell line" measured_parameter=Activity recorded_value=Non-Toxic
smiles_repr=Cc1cc(OCc2ccccc2)c(C)c2c1CC[C@H]1[C@H](C)C(=O)O[C@@H]21 target_or_test_system="Murine T-cell line" measured_parameter=Activity recorded_value=Non-Toxic
smiles_repr=Cc1cc(OCc2ccc(Cl)cc2)c(C)c2c1CC[C@H]1[C@H](C)C(=O)O[C@@H]21 target_or_test_system="Murine T-cell line" measured_parameter=Activity recorded_value=Non-Toxic
smiles_repr=Cc1cc(OC(=O)C(C)(C)C)c(C)c2c1CC[C@H]1[C@H](C)C(=O)O[C@@H]21 target_or_test_system="Murine T-cell line" measured_parameter=Activity recorded_value=Non-Toxic
smiles_repr=CCCCCC(=O)Oc1cc(C)c2c(c1C)[C@@H]1OC(=O)[C@@H](C)[C@@H]1CC2 target_or_test_system="Murine T-cell line" measured_parameter=Activity recorded_value=Toxic
smiles_repr=Cc1cc(OC(=O)c2ccccc2)c(C)c2c1CC[C@H]1[C@H](C)C(=O)O[C@@H]21 target_or_test_system="Murine T-cell line" measured_parameter=Activity recorded_value=Non-Toxic
smiles_repr=CCOc1cc(C)c2c(c1C)[C@@H]1OC(=O)[C@@H](C)[C@@H]1CC2 target_or_test_system="Murine T-cell line" measured_parameter=Activity recorded_value=Toxic
smiles_repr=COc1cc(C)c2c(c1C)[C@@H]1OC(=O)[C@@H](C)[C@@H]1CC2 target_or_test_system="Murine T-cell line" measured_parameter=Activity recorded_value=Toxic
smiles_repr=CCCOc1cc(C)c2c(c1C)[C@@H]1OC(=O)[C@@H](C)[C@@H]1CC2 target_or_test_system="Murine T-cell line" measured_parameter=Activity recorded_value=Toxic
smiles_repr=COc1ccc(NC(=O)CCC(=O)Oc2cc(C)c3c(c2C)[C@@H]2OC(=O)[C@@H](C)[C@@H]2CC3)cc1 target_or_test_system="Murine T-cell line" measured_parameter=Activity recorded_value=Non-Toxic
smiles_repr=CCCC(=O)Oc1cc(C)c2c(c1C)[C@@H]1OC(=O)[C@@H](C)[C@@H]1CC2 target_or_test_system="Murine T-cell line" measured_parameter=Activity recorded_value=Non-Toxic

====

test system: B-cell line; test: Cytotoxicity against Balb/c mouse B cells assessed as decrease cell survival at 10 uM by MTT assay; assay type: cell-based
measured_parameter: Activity

smiles_repr=CCCOc1cc(C)c2c(c1C)[C@@H]1OC(=O)[C@@H](C)[C@@H]1CC2 recorded_value=Toxic
smiles_repr=CCCCCOc1cc(C)c2c(c1C)[C@@H]1OC(=O)[C@@H](C)[C@@H]1CC2 recorded_value=Toxic
smiles_repr=COc1ccc(NC(=O)CCC(=O)Oc2cc(C)c3c(c2C)[C@@H]2OC(=O)[C@@H](C)[C@@H]2CC3)cc1 recorded_value=Non-Toxic
smiles_repr=Cc1cc(O)c(C)c2c1CC[C@H]1[C@H](C)C(=O)O[C@@H]21 recorded_value=Toxic
smiles_repr=COc1cc(C)c2c(c1C)[C@@H]1OC(=O)[C@@H](C)[C@@H]1CC2 recorded_value=Toxic
smiles_repr=CC1=C2[C@H]3OC(=O)[C@@H](C)[C@@H]3CC[C@@]2(C)C=CC1=O recorded_value=Non-Toxic
smiles_repr=CCCCCC(=O)Oc1cc(C)c2c(c1C)[C@@H]1OC(=O)[C@@H](C)[C@@H]1CC2 recorded_value=Toxic
smiles_repr=Cc1cc(OC(=O)CCC(=O)Nc2ccccc2Cl)c(C)c2c1CC[C@H]1[C@H](C)C(=O)O[C@@H]21 recorded_value=Non-Toxic
smiles_repr=Cc1cc(OCc2ccc(Cl)cc2)c(C)c2c1CC[C@H]1[C@H](C)C(=O)O[C@@H]21 recorded_value=Non-Toxic
smiles_repr=CCC(=O)Oc1cc(C)c2c(c1C)[C@@H]1OC(=O)[C@@H](C)[C@@H]1CC2 recorded_value=Toxic
smiles_repr=CC(=O)Oc1cc(C)c2c(c1C)[C@@H]1OC(=O)[C@@H](C)[C@@H]1CC2 recorded_value=Non-Toxic
smiles_repr=CCOc1cc(C)c2c(c1C)[C@@H]1OC(=O)[C@@H](C)[C@@H]1CC2 recorded_value=Toxic
smiles_repr=CCCCCCCC(=O)Oc1cc(C)c2c(c1C)[C@@H]1OC(=O)[C@@H](C)[C@@H]1CC2 recorded_value=Non-Toxic
smiles_repr=CCCCC(=O)Oc1cc(C)c2c(c1C)[C@@H]1OC(=O)[C@@H](C)[C@@H]1CC2 recorded_value=Non-Toxic
smiles_repr=Cc1cc(OC(=O)CCC(=O)O)c(C)c2c1CC[C@H]1[C@H](C)C(=O)O[C@@H]21 recorded_value=Toxic
smiles_repr=Cc1cc(OCc2ccccc2)c(C)c2c1CC[C@H]1[C@H](C)C(=O)O[C@@H]21 recorded_value=Non-Toxic
smiles_repr=CCCCOc1cc(C)c2c(c1C)[C@@H]1OC(=O)[C@@H](C)[C@@H]1CC2 recorded_value=Non-Toxic
smiles_repr=Cc1cc(OC(=O)C(C)C)c(C)c2c1CC[C@H]1[C@H](C)C(=O)O[C@@H]21 recorded_value=Non-Toxic

====

test system: Murine T-cell line; assay: Cytotoxicity against Balb/c mouse T cells assessed as decrease in cell survival at 100 uM by MTT assay; assay type: cell-based
measured_parameter: Activity

molecule=Cc1cc(OCc2ccccc2)c(C)c2c1CC[C@H]1[C@H](C)C(=O)O[C@@H]21 recorded_value=Toxic
molecule=COc1ccc(NC(=O)CCC(=O)Oc2cc(C)c3c(c2C)[C@@H]2OC(=O)[C@@H](C)[C@@H]2CC3)cc1 recorded_value=Toxic
molecule=Cc1cc(OC(=O)C(C)(C)C)c(C)c2c1CC[C@H]1[C@H](C)C(=O)O[C@@H]21 recorded_value=Non-Toxic
molecule=CCC(=O)Oc1cc(C)c2c(c1C)[C@@H]1OC(=O)[C@@H](C)[C@@H]1CC2 recorded_value=Toxic
molecule=CCCOc1cc(C)c2c(c1C)[C@@H]1OC(=O)[C@@H](C)[C@@H]1CC2 recorded_value=Toxic
molecule=CCCCCC(=O)Oc1cc(C)c2c(c1C)[C@@H]1OC(=O)[C@@H](C)[C@@H]1CC2 recorded_value=Toxic
molecule=CCCC(=O)Oc1cc(C)c2c(c1C)[C@@H]1OC(=O)[C@@H](C)[C@@H]1CC2 recorded_value=Non-Toxic
molecule=CCCCCOc1cc(C)c2c(c1C)[C@@H]1OC(=O)[C@@H](C)[C@@H]1CC2 recorded_value=Toxic
molecule="CC1=C2[C@H]3OC(=O)[C@@H](C)[C@@H]3CC[C@@]2(C)C=CC1=O [SANTONIN]" recorded_value=Non-Toxic
molecule=Cc1cc(OC(=O)c2ccccc2)c(C)c2c1CC[C@H]1[C@H](C)C(=O)O[C@@H]21 recorded_value=Non-Toxic
molecule=Cc1cc(OC(=O)CCC(=O)O)c(C)c2c1CC[C@H]1[C@H](C)C(=O)O[C@@H]21 recorded_value=Toxic
molecule=Cc1cc(OC(=O)C(C)C)c(C)c2c1CC[C@H]1[C@H](C)C(=O)O[C@@H]21 recorded_value=Non-Toxic
molecule=Cc1cc(OC(=O)CCC(=O)Nc2ccccc2Cl)c(C)c2c1CC[C@H]1[C@H](C)C(=O)O[C@@H]21 recorded_value=Non-Toxic
molecule=COc1cc(C)c2c(c1C)[C@@H]1OC(=O)[C@@H](C)[C@@H]1CC2 recorded_value=Toxic
molecule=CCCCCCCC(=O)Oc1cc(C)c2c(c1C)[C@@H]1OC(=O)[C@@H](C)[C@@H]1CC2 recorded_value=Toxic
molecule=CCOc1cc(C)c2c(c1C)[C@@H]1OC(=O)[C@@H](C)[C@@H]1CC2 recorded_value=Toxic
molecule=Cc1cc(OCc2ccc(Cl)cc2)c(C)c2c1CC[C@H]1[C@H](C)C(=O)O[C@@H]21 recorded_value=Toxic
